# Tested Target: T1, TNS3 SH2 domain (human, UniProt Q68CZ2 1172-1282)
# T1 construct: TNS3, human; source: bacterial expression, purified
# T1 sequence (looked up): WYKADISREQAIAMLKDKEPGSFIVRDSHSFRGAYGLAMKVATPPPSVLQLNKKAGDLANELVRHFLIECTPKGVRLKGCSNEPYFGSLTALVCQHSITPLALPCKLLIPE
# Method Notes: SPR; Biacore 3000; 6X His SH2 proteins held on a Ni-NTA chip, dye-free peptides in solution, equilibrium
# Cond: both partners purified
Non-standard residues stand in square brackets, D forms with d. No end group written: not given here. pY = N[C@@H](Cc1ccc(OP(=O)(O)O)cc1)C(=O)O
Readout: Kd (nM)

PDPL[pY]EVMLKCW [MET pY1313 phosphopeptide, dye-free] | 132
